Assay: High-throughput drug toxicity screening in the BPDCN cell line Cal-1 (AID 1224825);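 further: cells exposed to compounds for 48 h; 100% = DMSO and 0% = bortezomib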
Conditions: Cal-1 BPDCN cell viability, qHTS; at 45.8 µM (top of the series) unless noted
Exercise: state measured viability (% of control) for each of the molecules provided.
Answers are plain numbers, in %.

Answered examples (2):
| moleculeSmiles | viability (% of control) (%) |
| --- | --- |
| O=C(Nc1cccc(Cl)c1)Nc1ncc(CCNc2ncnc3ccsc23)s1 | 20.2 |
| NC(=O)c1ccc(N(C(N)=O)c2c(F)cccc2F)nc1-c1ccc(F)cc1F | 92.1 |

Suppose we examine the molecule O=C(CC12CC3CC(CC(C3)C1)C2)Nc1cccc2nc(NCCNCCO)ccc12 ; what viability (% of control) value has been reported? 5.92

* * *

Test: qHTS of pediatric cancer cell lines to identify multiple opportunities for drug repurposing: Primary screen for LAN-5 cells (AID 1347100); further: potency means the concentration at half of the fitted maximal effect
Conditions: LAN-5 neuroblastoma viability, CellTiter-Glo luminescence, 48 h; series mostly up to 46 µM
Inconclusive results are not listed. Calls of active or inactive are those of the source. The call rests on the fitted dose curve; in most records, active means well fitted cell-killing curve with a large enough effect; inconclusive means small, poorly fitted or top-dose-only effect; inactive means no such curve, though single readings can be large or run the other way.
observationType: Potency

Completed entries (count: 9):
| molecule | Potency |
| --- | --- |
| CC(C)CNc1ccnc(NCc2csc(-c3ccccc3)n2)n1 | 14.8 µM (active) |
| Cc1ccc2c(c1)c1c(n2CCc2ccc(C)nc2)CCN(C)C1 | inactive |
| O=c1[nH]c(=O)n([C@H]2C[C@@H](O)[C@@H](CO)O2)cc1I | inactive |
| O=C(O)C1=CC(O)C(O)[C@H](O)C1 (stereo not given in full) | inactive |
| COc1ccc2c(c1)c(C1=C(c3c[nH]c4ccccc34)C(=O)NC1=O)cn2CCCN(C)C | 16.6 µM (active) |
| O=C(c1ccc(C=Cc2n[nH]c3ccccc23)cc1)N1CCNCC1 | 0.833 µM (active) |
| NC1(C(=O)N[C@@H](CCO)c2ccc(Cl)cc2)CCN(c2ncnc3[nH]ccc23)CC1 | 18.7 µM (active) |
| CNC(=O)c1cc(Oc2ccc(NC(=O)Nc3ccc(Cl)c(C(F)(F)F)c3)c(F)c2)ccn1 | 20.9 µM (active) |
| CCC[C@H](Nc1nc(-c2ccc(NC(=O)NCC)c(OC)c2)ncc1C)c1cccnc1 | 0.0105 µM (active) |

// next entry
Need Potency, item CC(C)C[C@@H](C(=O)N[C@H](C(=O)OC1CCCC1)c1ccccc1)[C@H](O)C(=O)NO 16.6 µM (active)

* * *

Test: qHTS drug screen for cell cycle checkpoint inhibitors in PARPi-resistant BRCA-mutant ovarian cancer cell lines. (AID 1963452)
Settings: PEO1/OlaR viability, CellTiter-Glo luminescence, 96 h; measured here: PEO4 Z-AUC; stronger effect = lower value
The label t is reserved for Z-AUC strictly under 0.4; f covers values equal to or above it.

Check out these entries, answers already filled in.
| molecule | label |
| --- | --- |
| N#CC(c1ccc(Cl)cc1)c1c(Cl)cc(-n2ncc(=O)[nH]c2=O)cc1Cl (stereo not given) | t |
| CN(C)N=Nc1nc[nH]c1C(N)=O | f |
| C=C1c2cccc(O)c2C(O)=C2C(=O)[C@@]3(O)C(O)=C(C(N)=O)C(=O)[C@@H](N(C)C)[C@@H]3[C@@H](O)[C@H]12 | t |
| CCCC1OC2C[C@@H]3[C@H]4CCC5=CC(=O)C=C[C@]5(C)[C@H]4C(O)C[C@]3(C)[C@]2(C(=O)CO)O1 (stereo not given in full) | t |

Now take the following molecule into account.
hey, is Z-AUC for COC(=O)N1CCN(Cc2cccc(NC(=O)Nc3ccc(C)nc3)c2F)CC1 lower than 0.4 or not? t

* * *

Test: Quantitative High-Throughput drug screen in 47 multiple myeloma cell lines against the NCATS MIPE library collection: JJN3_DSMZ cell viability assay (AID 1918966; further: potency means the concentration at half of the fitted maximal effect; nearly all actives have a fitted effect of over 50% in size)
Settings: JJN3 myeloma cells viability, CellTiter-Glo ATP, 48 h; series mostly up to 45.8 µM
Text: PI: Beverly A. Mock Ph.D. Laboratory of Cancer Biology and Genetics, Center for Cancer Research, National Cancer Institute, National Institute of Health, Bethesda, Maryland […] 5; Detector; 425V; Luminescence; Viewlux PerkinElmer. […] 1. […] Briefly, the corresponding myeloma cell lines were screened in 1,536-well plates with 500 cells, 5-uL per well for inhibition of cell viability (assessed by measuring ATP levels with CellTiterGlo). […]
Results filed as inconclusive are left out. Activity calls are given as the source filed them. The call rests on the fitted dose curve; in most records, active means well fitted cell-killing curve with a large enough effect; inconclusive means small, poorly fitted or top-dose-only effect, or effect the other way; inactive means no such curve, though single readings can be large or run the other way.
Use one of these outcomes when replying: T = active, F = inactive

Please let me know the test result on file for C[C@@]1(C(=O)Nc2ccc(F)nc2)CCCN1c1nc(Nc2cc(C3CC3)[nH]n2)c2cccn2n1 . T

Which result was noted for this molecule in the test: COc1cc2nccc(Oc3ccc(NC(=O)Nc4ccc(F)cc4F)c(F)c3)c2cc1OC T

Test call for this molecule, please: CN1CCc2c(n(Cc3ccc(C(=O)NO)cc3)c3ccccc23)C1 T

Per the assay record, what outcome was assigned to CC(C)Oc1cc(Nc2nc(N[C@@H](C)c3ccc(F)cn3)ncc2Cl)[nH]n1 ? T

Entry O=C1C(c2c(O)[nH]c3ccccc23)=Nc2ccccc21 : call = ? T

* * *

Assay: Quantitative High-Throughput drug screen in 47 multiple myeloma cell lines against the NCATS MIPE library collection: RPMI8226_ATCC cell viability assay (AID 1919871); further: nearly all actives have a fitted effect of over 30% in size
Conditions: RPMI8226 myeloma viability, CellTiter-Glo ATP luminescence, 48 h; series mostly up to 45.8 µM
Results filed as inconclusive are left out. Active and inactive are the calls of the source. Calls come from the whole dose curve; as a rule, active = well fitted cell-killing curve with a large enough effect; inconclusive = small, poorly fitted or top-dose-only effect, or effect the other way; inactive = no such curve, though single readings can be large or run the other way.
Give one outcome, nothing more. List: 1.0 (active), 0.0 (inactive)

Example cases with answers are listed next.
| molecule | label |
| --- | --- |
| CCN(CCO)CCCOc1ccc2c(Nc3cc(CC(=O)Nc4cccc(F)c4)[nH]n3)ncnc2c1 | 0.0 |
| CC[C@H](C=C[C@@H](C)[C@H]1CC[C@H]2[C@@H]3CC=C4C[C@@H](O)CC[C@]4(C)[C@@H]3CC[C@]12C)C(C)C | 0.0 |
| C[C@@H](O[C@H]1OCCN(Cc2n[nH]c(=O)[nH]2)[C@@H]1c1ccc(F)cc1)c1cc(C(F)(F)F)cc(C(F)(F)F)c1 | 1.0 |
| CCN1CCC(n2cc(CNc3cc(Cl)c4ncc(C#N)c(Nc5ccc(F)c(Cl)c5)c4c3)nn2)CC1 | 1.0 |
| CCNC(=O)CCCC=CC[C@@H]1[C@H](C=CC(O)CCc2ccccc2)[C@@H](O)C[C@@H]1O (some centres not stated) | 1.0 |
| OC[C@H]1O[C@@H](O[C@H]2[C@@H](O)[C@@](O)(CO)O[C@@H]2CO)[C@H](O)[C@@H](O)[C@@H]1O | 0.0 |
| CC(=O)N1CCN(c2ccc(OCc3nn(C)c(C)c3-c3cccc4c(CCCOc5cc(C)c(Cl)c(C)c5)c(C(=O)O)n(Cc5cccnc5)c34)cc2)CC1 | 0.0 |
| OCCn1cc(-c2ccc3c(c2)CCC3=NO)c(-c2ccncc2)n1 | 0.0 |

Which outcome was assigned to O=C(Nc1ccccc1)Nc1ccc(-c2ccc(C(=O)[C@H]3CCC[C@H]3C(=O)O)cc2)cc1 in this test? 0.0

Look up the recorded call for CC1CNc2c(cccc2S(=O)(=O)N[C@@H](CCCN=C(N)N)C(=O)N2CC[C@@H](C)C[C@@H]2C(=O)O)C1 (some centres not stated) in this test. 0.0

Call for entry Oc1ccc(C=Cc2cc(O)cc(O)c2)cc1 : 1.0

Look up the recorded call for C[C@H]1O[C@@H](n2cc(F)c(=O)[nH]c2=O)[C@H](O)[C@H]1O in this test. 1.0

For this molecule, state the assay outcome: O=C1CN2Cc3c(ccc(Cl)c3Cl)N=C2N1 1.0

Give the logged outcome of this assay for the following molecule: NC(=O)c1ncn([C@@H]2O[C@H](CO)[C@@H](O)[C@@H]2O)n1 0.0

Please indicate how the test categorized CN(C)CCN(C)C(=O)c1ccc(NC(=O)Nc2ccc(-c3nc(N4CCOCC4)c4ccn(CC(F)(F)F)c4n3)cc2)cc1 . 1.0

Record lookup: outcome of this test for Cc1cnc(CNC(=O)c2c(=O)c3ccc(N4CCCN(C)CC4)nc3n3c2sc2ccccc23)cn1 ? 1.0

Recorded call for CN(C)CC[C@H](CSc1ccccc1)Nc1ccc(S(=O)(=O)NC(=O)c2ccc(N3CCN(Cc4ccccc4-c4ccc(Cl)cc4)CC3)cc2)cc1[N+](=O)[O-] ? 1.0

* * *

Assay: qHTS of pediatric cancer cell lines to identify multiple opportunities for drug repurposing: Primary screen for SK-N-MC cells (AID 1347093)
Conditions: SK-N-MC viability, CellTiter-Glo luminescence, 48 h; series mostly up to 46 µM
Inconclusive results are not listed. The source made the active and inactive calls. Calls follow the shape of the dose curve; as a rule, active = well fitted cell-killing curve with a large enough effect; inconclusive = small, poorly fitted or top-dose-only effect; inactive = no such curve, though single readings can be large or run the other way.
Outcome field: choose from TRUE for active, FALSE for inactive

| molecule | label |
| --- | --- |
| COc1ccc2c(c1)CC[C@H]1[C@@H]2CC[C@]2(C)[C@@H](NCCCCCCN3C(=O)C=CC3=O)CC[C@H]12 | FALSE |

What did this assay record as the result for CCCCCCOC(=O)N=C(N)c1ccc(NCc2nc3cc(C(=O)N(CCC(=O)OCC)c4ccccn4)ccc3n2C)cc1 ? TRUE

Test call for this molecule, please: CO[C@@H]1C(N(C)C(=O)c2ccccc2)C[C@H]2O[C@]1(C)n1c3ccccc3c3c4c(c5c6ccccc6n2c5c31)C(=O)NC4=O (stereo partly drawn) TRUE

Record request — test call for Cc1ccc(C(=O)N(CCCN)[C@@H](c2nc3cc(Cl)ccc3c(=O)n2Cc2ccccc2)C(C)C)cc1 TRUE

Hi team, can someone confirm the assay call for CC(C)(CO)[C@@H](O)C(=O)NCCC(=O)O ? FALSE

For CC(C)(O)CC(=O)NCCn1ccc2ncnc(Nc3ccc(Oc4cccc(C(F)(F)F)c4)c(Cl)c3)c21 , which call appears in the assay record? TRUE

GET /call?item= Nc1ccc(-c2ccc3ncc4ccc(=O)n(-c5cccc(C(F)(F)F)c5)c4c3c2)cn1 returns the recorded outcome of this test. TRUE

Give the logged outcome of this assay for the following molecule: COc1cc2c(cc1OC)[C@@H]1Cc3ccc(OC)c(OC)c3CN1CC2 FALSE

Dear colleague, could you share the recorded outcome for C[C@@H](N)c1ccc(C(=O)Nc2ccnc3[nH]ccc23)cc1 when you have a moment? TRUE

Returns: the outcome recorded for CNC1[C@H](O)C(O[C@@H]2C(O)C(O[C@H]3O[C@H]([C@@H](C)NC)CC[C@H]3N)[C@@H](N)C[C@H]2N)OC[C@]1(C)O (stereo partly drawn) in this assay. FALSE

What is the recorded call for this molecule in the test? CN(C)c1nc(Cc2ccc(NC(=O)c3ccc(C(F)(F)F)cc3)cc2)nc(N(C)C)c1CC(=O)O FALSE
